Data origin: the supplement of paper PMC10065799

# assay_system: EPHB2 (UniProt P29323)
# Sequence (P29323 whole entry, looked up): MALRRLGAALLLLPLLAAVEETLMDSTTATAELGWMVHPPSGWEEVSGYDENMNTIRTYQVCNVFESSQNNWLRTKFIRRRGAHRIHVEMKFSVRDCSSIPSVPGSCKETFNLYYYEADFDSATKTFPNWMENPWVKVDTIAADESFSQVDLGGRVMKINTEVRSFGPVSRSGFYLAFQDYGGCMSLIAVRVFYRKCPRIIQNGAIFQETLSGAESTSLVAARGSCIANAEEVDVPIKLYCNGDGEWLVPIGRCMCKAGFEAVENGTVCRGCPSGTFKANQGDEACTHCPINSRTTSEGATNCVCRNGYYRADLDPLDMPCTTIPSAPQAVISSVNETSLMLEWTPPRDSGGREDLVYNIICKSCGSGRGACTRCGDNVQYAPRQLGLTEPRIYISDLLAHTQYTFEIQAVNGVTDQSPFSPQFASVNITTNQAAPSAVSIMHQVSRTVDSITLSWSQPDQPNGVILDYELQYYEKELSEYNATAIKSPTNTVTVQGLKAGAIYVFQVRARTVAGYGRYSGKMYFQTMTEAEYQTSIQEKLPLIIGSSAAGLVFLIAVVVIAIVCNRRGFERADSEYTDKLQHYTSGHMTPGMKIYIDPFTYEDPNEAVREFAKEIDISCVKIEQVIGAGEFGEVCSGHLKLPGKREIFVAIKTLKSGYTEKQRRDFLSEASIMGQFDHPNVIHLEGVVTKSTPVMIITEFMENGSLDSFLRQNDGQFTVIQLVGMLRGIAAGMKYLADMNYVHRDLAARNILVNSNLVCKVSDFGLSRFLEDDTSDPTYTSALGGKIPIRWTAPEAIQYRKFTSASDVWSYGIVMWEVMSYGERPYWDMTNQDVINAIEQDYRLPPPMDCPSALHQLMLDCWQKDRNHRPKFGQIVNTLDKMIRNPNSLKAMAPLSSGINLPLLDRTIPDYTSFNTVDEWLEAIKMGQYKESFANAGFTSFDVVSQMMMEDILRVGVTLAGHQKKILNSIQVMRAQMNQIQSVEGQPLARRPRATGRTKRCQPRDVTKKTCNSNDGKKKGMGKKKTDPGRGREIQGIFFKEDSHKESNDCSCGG
# measurement_notes: phosphorylation enrichment, bacterial display (enrichment ratio); higher = better substrate or ligand; peptides without Tyr show the background;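 note: 11-residue human phosphosite peptides and single-mutation variants displayed on the E. coli surface, counted by deep sequencing, each peptide's frequency after selection divided by its frequency in the unselected input library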;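 note: frequency after pTyr selection over input frequency; kinase dosed for 20-30% of maximal phosphorylation in three min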
Recorded phosphorylation enrichment for the following sequences
Keep it simple and answer with nothing but the number.

Some entries whose results are on file:
{"columns": ["sequence_string", "metric_name", "recorded_value"],
 "data": [
  ["HKLSFCEFDFE [BTK_Y40_Y40C_YF]", "phosphorylation enrichment", 0.787],
  ["IQVNAYFSPIH [ADSL_Y432_D430N]", "phosphorylation enrichment", 0.536],
  ["RLLRGHDQSAY [HLA-C_Y137_Y137H]", "phosphorylation enrichment", 0.336],
  ["SGSFRYGSSCE [SELE_Y390]", "phosphorylation enrichment", 0.456],
  ["FEPWVYSFSYE [PRKDC_Y647]", "phosphorylation enrichment", 0.654]
]}

Prompt line: Hello, please tell me recorded phosphorylation enrichment for this one: RLRKFYLGKFL [KLB_Y906_YF]
Response line: 0.462

Prompt line: Hello, please tell me recorded phosphorylation enrichment for this one: EREYKYGAHNH [OAT_Y50_Y55H]
Response line: 0.509

Prompt line: Hello, please tell me recorded phosphorylation enrichment for this one: QITQVCGFYDE [PPP2CA_Y127_Y127C]
Response line: 0.849

Prompt line: Hello, please tell me recorded phosphorylation enrichment for this one: AGTILYHAHLD [ASS1_Y291]
Response line: 0.78

Prompt line: Hello, please tell me recorded phosphorylation enrichment for this one: TGDFGYRTPGY [TNS2_Y668_A670T]
Response line: 0.423

Prompt line: Hello, please tell me recorded phosphorylation enrichment for this one: RRERPYGGGGG [FUS_Y526]
Response line: 0.554

====

# assay_system: MERTK (UniProt Q12866)
# Sequence (Q12866 whole entry, looked up): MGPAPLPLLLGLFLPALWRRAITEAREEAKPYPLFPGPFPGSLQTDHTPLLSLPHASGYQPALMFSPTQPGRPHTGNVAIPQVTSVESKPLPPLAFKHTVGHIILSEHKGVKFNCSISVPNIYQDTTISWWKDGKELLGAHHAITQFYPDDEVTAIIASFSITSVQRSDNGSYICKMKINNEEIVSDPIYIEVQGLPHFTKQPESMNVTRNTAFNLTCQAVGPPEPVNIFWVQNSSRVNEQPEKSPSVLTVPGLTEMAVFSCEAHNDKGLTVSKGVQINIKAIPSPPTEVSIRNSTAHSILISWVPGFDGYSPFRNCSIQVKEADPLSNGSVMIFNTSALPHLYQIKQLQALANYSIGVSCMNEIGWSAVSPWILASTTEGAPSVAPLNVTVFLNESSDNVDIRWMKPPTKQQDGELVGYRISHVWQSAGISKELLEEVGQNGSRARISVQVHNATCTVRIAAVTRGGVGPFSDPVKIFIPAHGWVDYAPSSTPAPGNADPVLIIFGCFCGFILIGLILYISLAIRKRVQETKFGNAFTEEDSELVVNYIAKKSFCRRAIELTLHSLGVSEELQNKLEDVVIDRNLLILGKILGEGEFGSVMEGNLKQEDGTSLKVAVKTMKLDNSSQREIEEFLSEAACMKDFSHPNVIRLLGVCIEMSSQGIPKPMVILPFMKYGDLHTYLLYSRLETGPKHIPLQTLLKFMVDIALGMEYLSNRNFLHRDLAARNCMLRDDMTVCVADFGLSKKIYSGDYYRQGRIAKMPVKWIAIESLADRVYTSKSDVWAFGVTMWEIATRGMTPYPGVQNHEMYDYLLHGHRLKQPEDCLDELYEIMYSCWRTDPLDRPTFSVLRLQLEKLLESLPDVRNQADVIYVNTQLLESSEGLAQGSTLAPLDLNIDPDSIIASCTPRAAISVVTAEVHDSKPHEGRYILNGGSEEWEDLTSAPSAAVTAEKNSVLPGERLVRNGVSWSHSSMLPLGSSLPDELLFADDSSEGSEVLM
# measurement_notes: phosphorylation enrichment, bacterial display (enrichment ratio); higher = better substrate or ligand; peptides without Tyr show the background
metric_name: phosphorylation enrichment
Keep it simple and answer with nothing but the number.

Some entries whose results are on file:
{"columns": ["sequence_string", "phosphorylation enrichment"],
 "data": [
  ["FAREGYSALPQ [SARS2_Y52_YF]", 0.502],
  ["TRNRDYDDIDD [TTYH2_Y424]", 0.507],
  ["CSRHFYQLTKL [AR_Y858_R856H]", 0.432],
  ["CVAARYMDMKG [WFIKKN2_Y93_V96M]", 0.446]
]}

Prompt line: Hello, please tell me recorded phosphorylation enrichment for this one: KIKLNYTLPQD [NRAP_Y523_N519I]
Response line: 0.53

Prompt line: Hello, please tell me recorded phosphorylation enrichment for this one: VQQVIYATGAL [MYH7_Y422]
Response line: 3.08

Prompt line: Hello, please tell me recorded phosphorylation enrichment for this one: LRAGVYREKDQ [DNM2_Y626_P627R]
Response line: 0.398

====

# assay_system: Fes (UniProt P07332)
# Sequence (P07332 whole entry, looked up): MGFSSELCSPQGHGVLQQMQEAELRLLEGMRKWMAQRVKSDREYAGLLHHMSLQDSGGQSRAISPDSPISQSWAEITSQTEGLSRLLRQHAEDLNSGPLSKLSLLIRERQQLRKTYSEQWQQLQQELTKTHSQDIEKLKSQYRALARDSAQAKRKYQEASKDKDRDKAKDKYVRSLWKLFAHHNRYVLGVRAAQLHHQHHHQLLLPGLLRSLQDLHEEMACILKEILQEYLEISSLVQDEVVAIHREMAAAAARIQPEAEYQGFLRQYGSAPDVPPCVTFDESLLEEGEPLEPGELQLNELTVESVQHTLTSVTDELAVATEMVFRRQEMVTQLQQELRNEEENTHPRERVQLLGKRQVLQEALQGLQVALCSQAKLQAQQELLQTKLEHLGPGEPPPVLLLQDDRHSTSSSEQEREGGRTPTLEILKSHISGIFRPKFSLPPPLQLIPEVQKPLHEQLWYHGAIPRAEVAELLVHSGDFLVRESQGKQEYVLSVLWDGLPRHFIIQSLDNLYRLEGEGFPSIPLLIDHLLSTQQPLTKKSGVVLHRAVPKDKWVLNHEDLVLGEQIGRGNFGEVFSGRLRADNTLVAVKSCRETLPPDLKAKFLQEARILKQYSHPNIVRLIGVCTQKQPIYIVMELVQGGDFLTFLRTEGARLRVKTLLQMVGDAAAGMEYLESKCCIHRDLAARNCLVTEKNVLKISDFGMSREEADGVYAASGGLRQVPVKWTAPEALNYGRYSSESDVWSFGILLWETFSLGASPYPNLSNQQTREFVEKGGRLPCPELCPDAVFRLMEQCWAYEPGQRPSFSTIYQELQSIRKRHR
# measurement_notes: phosphorylation enrichment, bacterial display (enrichment ratio); higher = better substrate or ligand; peptides without Tyr show the background
metric_name: phosphorylation enrichment

Some entries whose results are on file:
{"columns": ["sequence_string", "phosphorylation enrichment"],
 "data": [
  ["DVFRQYASLRG [GANAB_Y379_T383R]", 0.625],
  ["FSAGTYPRLEE [SYCN_Y108]", 0.918],
  ["AQADIYKANFQ [IKBKG_Y308_D311N]", 0.81],
  ["EALDFYGEVRI [PTEN_Y155_T160I]", 1.73],
  ["SNYRAYATEPQ [TNNI3_Y29_H34Q]", 0.72]
]}

Prompt line: Hello, please tell me recorded phosphorylation enrichment for this one: ALAPKYHGGGG [HBB_Y146_H144P]
Response line: 0.506

Prompt line: Hello, please tell me recorded phosphorylation enrichment for this one: RNEAFYDTFST [EFCAB3_Y372_S370A]
Response line: 1.14

Prompt line: Hello, please tell me recorded phosphorylation enrichment for this one: HCFNSYTFPRL [PAK7_Y316_S312C_YF]
Response line: 1.72

Prompt line: Hello, please tell me recorded phosphorylation enrichment for this one: RETLTYAQAQG [BRD1_Y33_R38G]
Response line: 0.448

Prompt line: Hello, please tell me recorded phosphorylation enrichment for this one: KTVQDYLKKFY [MMP8_Y36_E38K]
Response line: 0.687

====

# assay_system: EPHB1 (UniProt P54762)
# Sequence (P54762 whole entry, looked up): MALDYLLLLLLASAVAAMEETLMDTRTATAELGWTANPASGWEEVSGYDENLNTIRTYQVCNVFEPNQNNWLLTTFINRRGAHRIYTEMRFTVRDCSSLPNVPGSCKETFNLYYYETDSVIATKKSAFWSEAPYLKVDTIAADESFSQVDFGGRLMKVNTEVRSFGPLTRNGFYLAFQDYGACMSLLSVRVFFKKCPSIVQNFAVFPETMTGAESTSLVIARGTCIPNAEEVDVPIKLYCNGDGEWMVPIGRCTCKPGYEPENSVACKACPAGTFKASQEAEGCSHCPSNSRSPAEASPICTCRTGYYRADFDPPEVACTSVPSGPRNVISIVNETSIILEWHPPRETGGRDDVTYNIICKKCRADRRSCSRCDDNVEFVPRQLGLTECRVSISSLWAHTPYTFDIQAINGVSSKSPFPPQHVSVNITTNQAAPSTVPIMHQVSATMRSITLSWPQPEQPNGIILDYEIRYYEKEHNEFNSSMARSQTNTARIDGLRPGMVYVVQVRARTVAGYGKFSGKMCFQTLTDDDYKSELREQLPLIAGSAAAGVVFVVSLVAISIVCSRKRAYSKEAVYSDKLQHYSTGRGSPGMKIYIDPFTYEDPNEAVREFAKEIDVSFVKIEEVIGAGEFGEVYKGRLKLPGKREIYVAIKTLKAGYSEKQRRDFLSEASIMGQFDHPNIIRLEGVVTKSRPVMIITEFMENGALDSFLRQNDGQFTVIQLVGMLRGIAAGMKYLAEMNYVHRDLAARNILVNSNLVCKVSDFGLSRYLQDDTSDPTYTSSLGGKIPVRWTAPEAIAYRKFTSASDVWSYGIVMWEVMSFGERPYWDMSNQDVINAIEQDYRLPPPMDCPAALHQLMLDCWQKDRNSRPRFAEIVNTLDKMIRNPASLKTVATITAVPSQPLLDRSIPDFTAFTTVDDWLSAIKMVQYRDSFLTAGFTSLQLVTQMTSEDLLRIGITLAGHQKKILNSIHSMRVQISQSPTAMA
# measurement_notes: phosphorylation enrichment, bacterial display (enrichment ratio); higher = better substrate or ligand; peptides without Tyr show the background
metric_name: phosphorylation enrichment
Keep it simple and answer with nothing but the number.

Some entries whose results are on file:
{"columns": ["sequence_string", "phosphorylation enrichment"],
 "data": [
  ["WQQQSYLDSGI [CTNNB1_Y30]", 0.489],
  ["SKDQIYPMKLK [RANBP17_Y823]", 0.29],
  ["IPGVEYLVSII [TNC_Y1775]", 0.667],
  ["SIKHKYVTALY [KCNH2_Y611_D609H]", 0.399],
  ["CCNHPYLINGA [CHD7_Y1256]", 0.352]
]}

Prompt line: Hello, please tell me recorded phosphorylation enrichment for this one: PESIMYRKFTT [NTRK3_Y744]
Response line: 0.534

Prompt line: Hello, please tell me recorded phosphorylation enrichment for this one: HRDSSYYWEIE [RAF1_Y340_Q335H]
Response line: 3.07

Prompt line: Hello, please tell me recorded phosphorylation enrichment for this one: FDCKWYIPLTD [BCR_Y756_YF]
Response line: 0.998

Prompt line: Hello, please tell me recorded phosphorylation enrichment for this one: DPHQQYYIAMD [TBX15_Y159]
Response line: 0.735

Prompt line: Hello, please tell me recorded phosphorylation enrichment for this one: EREYKYGAHNH [OAT_Y50_Y55H]
Response line: 0.391

Prompt line: Hello, please tell me recorded phosphorylation enrichment for this one: AACQHYGVHTC [NR4A2_Y275_R278H]
Response line: 0.445

Prompt line: Hello, please tell me recorded phosphorylation enrichment for this one: LFEDHYLLGTS [ASS1_Y87_R86H_YF]
Response line: 0.618

Prompt line: Hello, please tell me recorded phosphorylation enrichment for this one: FSAGTYPRLEE [SYCN_Y108]
Response line: 0.493

Prompt line: Hello, please tell me recorded phosphorylation enrichment for this one: SMAKFYASEIA [ACADSB_Y373_YF]
Response line: 0.403

====

Recorded phosphorylation enrichment for the following sequences
# Tested on: c-Src
# measurement_notes: phosphorylation enrichment, bacterial display (enrichment ratio); higher = better substrate or ligand; peptides without Tyr show the background
Keep it simple and answer with nothing but the number.

Some entries whose results are on file:
{"columns": ["sequence_string", "recorded_value"],
 "data": [
  ["KGSLPYSLILD [PKD1L2_Y406_N407S]", 1.63],
  ["RRERPYGGGGG [FUS_Y526]", 0.485]
]}

Prompt line: Hello, please tell me recorded phosphorylation enrichment for this one: PVGVLYKVKVF [PTS_Y128_YF]
Response line: 0.388

Prompt line: Hello, please tell me recorded phosphorylation enrichment for this one: PRDSGYSFETI [MAP1B_Y1921_S1917R_YF]
Response line: 1.31

Prompt line: Hello, please tell me recorded phosphorylation enrichment for this one: YKRAVYCIIGR [NUP93_Y391]
Response line: 0.626

Prompt line: Hello, please tell me recorded phosphorylation enrichment for this one: IHETTYKSIMK [ACTA1_Y281_N282K]
Response line: 0.384

Prompt line: Hello, please tell me recorded phosphorylation enrichment for this one: FSEVRYVKEPY [HIPK4_Y170]
Response line: 0.392

====

# assay_system: EPHB2 (UniProt P29323)
# measurement_notes: phosphorylation enrichment, bacterial display (enrichment ratio); higher = better substrate or ligand; peptides without Tyr show the background
metric_name: phosphorylation enrichment
Keep it simple and answer with nothing but the number.

{"columns": ["sequence_string", "recorded_value"],
 "data": [
  ["IHETTYKSIMK [ACTA1_Y281_N282K]", 0.33],
  ["LLTALYFISWG [KCNH2_Y780_R784W]", 0.786],
  ["SLKEFYGEDAK [ALDH3A1_Y272]", 0.472],
  ["SLGSPYGQPPR [PDLIM4_Y137]", 0.448],
  ["FEGAIYRKDVG [GART_Y417]", 0.312],
  ["ISDDNYGRIRL [ARCN1_Y310_K309N]", 1.21],
  ["IRKAEYPFSSE [ATP2C1_Y452]", 0.341],
  ["HNLPIYEGYAL [ACTA1_Y168_V165L]", 22.7]
]}

Prompt line: Hello, please tell me recorded phosphorylation enrichment for this one: DAVAVCHGKIS [SH2D1A_Y7_Y7C]
Response line: 0.471

Prompt line: Hello, please tell me recorded phosphorylation enrichment for this one: TTSQPYRCLCS [USH2A_Y534]
Response line: 0.587

Prompt line: Hello, please tell me recorded phosphorylation enrichment for this one: KTVQDYLKKFY [MMP8_Y36_E38K]
Response line: 0.398

Prompt line: Hello, please tell me recorded phosphorylation enrichment for this one: FNDSAYNQQLI [ZPLD1_Y198_T197A_YF]
Response line: 0.383

Prompt line: Hello, please tell me recorded phosphorylation enrichment for this one: DHFNQYEQQKM [CHD7_Y75_YF]
Response line: 0.462

Prompt line: Hello, please tell me recorded phosphorylation enrichment for this one: QAFSWYQHQRA [NDST1_Y714_R709Q_YF]
Response line: 0.71

Prompt line: Hello, please tell me recorded phosphorylation enrichment for this one: DRTGHYLCNAC [GATA1_Y223]
Response line: 0.676

Prompt line: Hello, please tell me recorded phosphorylation enrichment for this one: MMVGAYSSLEG [ECPAS_Y470_T472S]
Response line: 0.434
